Measured MIC, listed per entry.
test system: Mycobacterium tuberculosis; experiment: Antimycobacterial activity against multidrug resistance Mycobacterium tuberculosis CCM11.1 assessed as reduction in bacterial growth incubated for 7 days by resazurin based assay; type: functional; conditions: CCM11.1, 168 h
Could you give the number and then its unit, please?

[
  {
    "Smiles record": "COc1ccc(-n2c(C)cc(CNC3CCCCC3)c2C)cc1",
    "MIC": "0.5 µg/mL"
  },
  {
    "Smiles record": "Cc1cc(CNCC2CCCCC2)c(C)n1-c1ccc(Cl)cc1",
    "MIC": "0.12 µg/mL"
  },
  {
    "Smiles record": "Cc1cc(CNC2CCCCC2)c(C)n1-c1ccc(C(C)C)cc1",
    "MIC": "0.5 µg/mL"
  }
]

Here is the next item to consider.
QUERY: Dear colleague, I am looking for the recorded MIC of the following compound: Cc1cc(CN[C@H]2C[C@@H]3CC[C@H]2C3)c(C)n1-c1ccc(Cl)cc1
RESULT: 1 µg/mL

The measured values listed here are drawn from ChEMBL document CHEMBL4613277.
